Data origin: the Human Domainome abundance scans (Beltran et al. 2025)

B1: DNA topoisomerase 3-alpha, residues 812 to 851; numbered along this chain, Q13472 (parent)
chain: TCNCGQEAVLLTVRKEGPNRGRQFFKCNGGSCNFFLWADS

- Variants of: B1
- experimental-protocol: abundance fitness (aPCA) (normalised: wild type 0, dead -1); higher = more abundant; growth selection in yeast, the domain comes from the species named
- protocol-conditions: Homo sapiens
Assign MET to entries whose abundance fitness meets or exceeds -0.3; assign NOT MET to the rest.

Before answering, review these 5 worked examples.
{"mutation-notation": "N19L", "discrete-label": "MET"}
{"mutation-notation": "S31R", "discrete-label": "MET"}
{"mutation-notation": "L11Q", "discrete-label": "MET"}
{"mutation-notation": "T12W", "discrete-label": "NOT MET"}
{"mutation-notation": "G29A", "discrete-label": "MET"}

Input line: Is abundance fitness for L10T at or above -0.3?
Output line: MET

Input line: Is abundance fitness for K15T at or above -0.3?
Output line: MET
